System: Mus musculus
test.protocol: Percent increase in life span of TLX/5 lymphoma bearing mice at dose of 400 mg/kg
Type: functional
Reported ILS at 400 mg/kg values follow for various molecules

molecule | ILS at 400 mg/kg [%]
C=CCN(C)/N=N/c1ccc(C(=O)O)cc1 | -25
CCCCN(C)/N=N/c1ccc(C(=O)O)cc1 | -31
CN(C)/N=N/c1[nH]cnc1C(N)=O | -11
CCCCCCN(C)/N=N/c1ccc(C(=O)O)cc1 | -53
CN(Cc1ccccc1)/N=N/c1ccc(C(=O)O)cc1 | -61
CCCCCN(C)/N=N/c1ccc(C(=O)O)cc1 | -61
C#CCN(C)/N=N/c1ccc(C(=O)O)cc1 | -18
CCCN(C)/N=N/c1ccc(C(=O)O)cc1 | -3
CN(C)/N=N/c1ccc(C(=O)O)cc1 | -34
CCN(C)/N=N/c1ccc(C(=O)O)cc1 | -21
CC(C)N(C)/N=N/c1ccc(C(=O)O)cc1 | 35
CCC(C)CN(C)/N=N/c1ccc(C(=O)O)cc1 (stereo not drawn) | 57
CCCCCCCN(C)/N=N/c1ccc(C(=O)O)cc1 | -48

====

test.protocol: Partition coefficient was determined in octanol-saturated sorenson's pH 7.4 phosphate buffer and buffer-saturated octanol.
Format: physicochemical
test.conditions: octanol/Sorensen's phosphate buffer

compound | logD
CCCCCCN(C)/N=N/c1ccc(C(=O)O)cc1 | 1.95
C=CCN(C)/N=N/c1ccc(C(=O)O)cc1 | 0.32
CCC(C)CN(C)/N=N/c1ccc(C(=O)O)cc1 (stereo unspecified) | 1.33
CCCCCCCN(C)/N=N/c1ccc(C(=O)O)cc1 | 2.58
CCCCN(C)/N=N/c1ccc(C(=O)O)cc1 | 0.97
CCCCCCCCN(C)/N=N/c1ccc(C(=O)O)cc1 | 2.77
C#CCN(C)/N=N/c1ccc(C(=O)O)cc1 | 0
CCCN(C)/N=N/c1ccc(C(=O)O)cc1 | 0.46
CC(C)N(C)/N=N/c1ccc(C(=O)O)cc1 | 0.34
CN(C)/N=N/c1ccc(C(=O)O)cc1 | -0.44
CCCCCN(C)/N=N/c1ccc(C(=O)O)cc1 | 1.49

====

test.protocol: Solubility in sorensen's phosphate buffer at pH 7.4 and 25 degrees Centigrade.
experimental.readout: Solubility (M l-1)

compound | reading
CCCCCCCCCCCCN(C)/N=N/c1ccc(C(=O)O)cc1 | 4.13e-6
CCCCN(C)/N=N/c1ccc(C(=O)O)cc1 | 0.0155
CCCCCCN(C)/N=N/c1ccc(C(=O)O)cc1 | 0.00298
CCCN(C)/N=N/c1ccc(C(=O)O)cc1 | 0.0368
CCCCCCCCN(C)/N=N/c1ccc(C(=O)O)cc1 | 0.000171
CCCCCCCN(C)/N=N/c1ccc(C(=O)O)cc1 | 0.00041
CCCCCN(C)/N=N/c1ccc(C(=O)O)cc1 | 0.00428
CCC(C)CN(C)/N=N/c1ccc(C(=O)O)cc1 (stereo not drawn) | 0.0162

====

System: Mus musculus
test.protocol: Percent increase in life span of TLX/5 lymphoma bearing mice at dose of 50 mg/kg
Format: functional
Assign Yes whenever ILS at 50 mg/kg does not fall below 80%; assign No whenever it does.

molecule | group.label
CN(Cc1ccccc1)/N=N/c1ccc(C(=O)O)cc1 | No
CCCCCCN(C)/N=N/c1ccc(C(=O)O)cc1 | No
CCCN(C)/N=N/c1ccc(C(=O)O)cc1 | No
CCCCN(C)/N=N/c1ccc(C(=O)O)cc1 | Yes
C#CCN(C)/N=N/c1ccc(C(=O)O)cc1 | No
CC(C)N(C)/N=N/c1ccc(C(=O)O)cc1 | No
CCC(C)CN(C)/N=N/c1ccc(C(=O)O)cc1 (centres undefined) | No
C=CCN(C)/N=N/c1ccc(C(=O)O)cc1 | Yes

====

System: Mus musculus
test.protocol: Percent increase in life span of TLX/5 lymphoma bearing mice at dose of 25 mg/kg
Format: functional
Reported ILS at 25 mg/kg values follow for various compounds
experimental.readout: ILS at 25 mg/kg (%)

compound | reading
CN(C)/N=N/c1[nH]cnc1C(N)=O [DACARBAZINE] | 55
CCCCCCCN(C)/N=N/c1ccc(C(=O)O)cc1 | 1
CCN(C)/N=N/c1ccc(C(=O)O)cc1 | 79
CCC(C)CN(C)/N=N/c1ccc(C(=O)O)cc1 (configuration not stated) | 11
CCCCCCN(C)/N=N/c1ccc(C(=O)O)cc1 | 0
CCCN(C)/N=N/c1ccc(C(=O)O)cc1 | 69
CN(C)/N=N/c1ccc(C(=O)O)cc1 | 72
